Tested on: HCT-116 colon
EXPERIMENTAL PROTOCOL: NCI-60 one-dose screen, 48 h
CONDITIONS: 10 µM unless noted
This is part of a sample that, as a whole, favours compounds with a hit. Of some 83,000 tested, about 20% had one in any assay. Calls of active or inactive are those of the source. The calls were made as follows: active = growth percent below 10; inactive = the rest.
Outcomes: active, inactive

# MOLECULE, CAT
data = [
    ("Oc1ccc(C#CCOc2ccccc2)cc1CNCCN(Cc1ccccn1)Cc1ccccn1", "active"),
    ("COc1cc(C2CC(c3ccc(SC)cc3)=NN2C(C)=O)cc(OC)c1OC (centres undefined)", "inactive"),
    ("O=C(Nc1ccc(I)cc1F)c1cc(I)ccc1O", "active"),
    ("Cc1cccc(NC2=C(Cl)C(=O)c3nc(C)ccc3C2=O)c1", "active"),
]

* * *

Tested on: PC-3 prostate
EXPERIMENTAL PROTOCOL: NCI-60 one-dose screen, 48 h
CONDITIONS: 10 µM unless noted
This is part of a sample that, as a whole, favours compounds with a hit. Of some 83,000 tested, about 20% had one in any assay. Activity calls are given as the source filed them. Rule for the calls: active = growth percent below 10; inactive = the rest.
Outcomes: y (active), n (inactive)

# COMPOUND, SYSTEM TESTED, CAT
measured = [
    ("CNc1nc2c(s1)C(c1cc(F)ccc1F)CC(=O)N2 (stereo unspecified)", "PC-3 prostate", "n"),
    ("Cc1nc2ccccc2c(/C=C/c2ccc(Cl)cc2)c1C(=O)/C=C/c1ccc(C(F)(F)F)cc1", "PC-3 prostate", "y"),
    ("O=C(CCN1C(=O)/C(=C/c2ccc(O)cc2)SC1=S)Nc1ccccc1", "PC-3 prostate", "n"),
    ("COc1ccc(/C=C(\\C#N)n2nnc3c(F)cccc32)cc1", "PC-3 prostate", "n"),
    ("COc1ccc(C(=O)C[C@]2(O)C(=O)Nc3c(Cl)ccc(Cl)c32)cc1", "PC-3 prostate", "n"),
    ("COc1cc2cc(Oc3ccc(NC(=O)Nc4cccc(C(F)(F)F)c4)cc3)c(C)nc2cc1OCCN1CCOCC1", "PC-3 prostate", "n"),
]

* * *

Tested on: SK-MEL-28 melanoma
EXPERIMENTAL PROTOCOL: NCI-60 one-dose screen, 48 h
CONDITIONS: 10 µM unless noted
Compounds without any hit were thinned out: in the full panel of roughly 83,000, 20% have a hit. Active and inactive are the calls of the source. Rule for the calls: active = growth percent below 10; inactive = the rest.
Outcomes: active, inactive

# SUBSTANCE SMILES, SYSTEM TESTED, CAT
rows = [
    ("Oc1ccc(Cl)cc1Cc1cc(Cl)cc(Cl)c1O", "SK-MEL-28 melanoma", "inactive"),
    ("O=c1c2cc(F)cc(Cl)c2sc2c(NCCCNCCO)nc3ccccc3c12", "SK-MEL-28 melanoma", "inactive"),
    ("COC(=O)/C=C1\\S/C(=N\\Nc2ccc([N+](=O)[O-])cc2[N+](=O)[O-])N(C2CCCCC2)C1=O", "SK-MEL-28 melanoma", "inactive"),
    ("O=c1[nH]c2c(ccc3cnccc32)c2c1CCC2", "SK-MEL-28 melanoma", "active"),
]

* * *

This section presents compounds with their documented growth values.
Tested on: A549/ATCC NSCLC
EXPERIMENTAL PROTOCOL: NCI-60 one-dose screen, 48 h (100 = growth as untreated, 0 = no growth, -100 = all killed)
CONDITIONS: 10 µM unless noted
Compounds without any hit were thinned out: in the full panel of roughly 83,000, 20% have a hit.

# COMPOUND, growth / %
rows = [
    ("CCCCn1c(=O)c(-c2cc(-c3ccc(Cl)cc3)nc(-c3ccc(Cl)cc3)c2)cc2cc(Cl)ccc21", 101),
    ("C[C@H](C(=O)Nc1ccc(S(N)(=O)=O)cc1)S(=O)(=O)c1ccccc1", 102),
    ("COc1ccc(OC)c(/C=C/c2nnc(Nc3ccccc3)o2)c1", 96.5),
    ("CCCCCCn1c(-c2ccc(C(=O)O/N=C(\\N)c3ccc4ccccc4c3)cc2)nc(-c2ccccc2)c1-c1ccccc1", -33.5),
    ("O=C1NC(=O)C(c2ccccc2)(c2ccccc2)N1Cc1cn(-c2c3ccccc3nc3ccccc23)nn1", 78.2),
    ("O=C(CCc1nnc(-c2c(Cl)cccc2Cl)o1)c1nc2ccccc2[nH]1", 69.7),
    ("CC/C=C\\C[C@@H](O)C/C=C1/C(=O)C=C[C@H]1C/C=C\\CCCC(=O)OC", -16.6),
    ("COc1cc(CCC[P+](c2ccccc2)(c2ccccc2)c2ccccc2)c(OC)c(OC)c1OC", 78.2),
    ("NCCCNc1nc2ccccc2c2c(=O)c3cccc(F)c3sc12", 24),
    ("NCCOc1ncccc1/C=C1\\c2ccccc2-c2ccc(C(F)F)cc21", 20.9),
    ("CC(=O)N1N=C(c2ccc(Nc3nc(Nc4ccc(F)cc4)nc(Nc4ccc(Cl)cc4)n3)cc2)CC1c1ccc(Cl)cc1 (centres undefined)", 92.5),
    ("CNC(=O)c1[nH]cc(-c2ccccc2)c1-c1cc(OC)c2c(c1OC)OCO2", 96.7),
    ("CCOC(=O)c1cn2ncnc(Oc3ccc(NC(=O)NCCN(CC)CC)c(Cl)c3)c2c1C", 91.5),
    ("O=C(Nc1ccc(Cl)cc1F)c1cc(Cl)ccc1O", 7.91),
    ("COc1cc(C(=O)N/N=C/c2cc3cc(OCc4ccccc4)ccc3nc2OC)cc(OC)c1OC", 82.2),
    ("Cc1ccc2sc3c(NCCCN)nc4ccccc4c3c(=O)c2c1", 43.5),
    ("Cc1ccc(C(C)C)cc1C(=O)C[n+]1ccccc1", 101),
    ("COc1cc(Nc2cn[nH]c2-c2ccc(Cl)cc2)cc(OC)c1OC", 51),
    ("Nc1nc(-c2cccc3ccccc23)cc2ccccc12", 28.7),
]

* * *

System: M14 melanoma
EXPERIMENTAL PROTOCOL: NCI-60 one-dose screen, 48 h (100 = growth as untreated, 0 = no growth, -100 = all killed)
CONDITIONS: 10 µM unless noted
Compounds without any hit were thinned out: in the full panel of roughly 83,000, 20% have a hit.
This section presents compounds with their documented growth values.
METRIC: growth (%)

# COMPOUND, SYSTEM TESTED, REPORTED
measured = [
    ("CNC(=O)c1cc(-n2ccc3cc(NC(=O)c4ccc(N5CCOCC5)c(C(F)(F)F)c4)ccc32)ccn1", "M14 melanoma", 62.4),
    ("CCN(CC)CCCNc1nc2ccccc2c2c(=O)c3cc(Cl)ccc3sc12", "M14 melanoma", 1.36),
    ("COc1cc(C(=O)N/N=C/c2cc3cc(OCc4ccccc4)ccc3nc2OC)cc(OC)c1OC", "M14 melanoma", 83.4),
    ("CCCCCCCCCCCCCCCCCCOc1ccc(CC(=O)OCC[N+](C)(C)C)cc1", "M14 melanoma", 91.5),
    ("N#Cc1ccc(NC(=O)c2sc3nc4c(cc3c2N)C(=O)CCC4)cc1", "M14 melanoma", 106),
    ("Oc1c(I)cc(I)cc1CNCCCN(Cc1ccccn1)Cc1ccccn1", "M14 melanoma", -72),
    ("COc1cc2cc(Oc3ccc(NC(=O)Nc4ccc(F)c(C(F)(F)F)c4)cc3)c(C)nc2cc1OCCN1CCOCC1", "M14 melanoma", 16.7),
    ("O=C(Nc1c2ccccc2nc2ccccc12)c1ccccc1CN1C(=O)c2ccccc2C1=O", "M14 melanoma", 21),
    ("Nc1nc(-c2cccc3ccccc23)cc2ccccc12", "M14 melanoma", -29.5),
    ("CCCCNC(=O)Oc1ccc(/C(=C(\\C)c2ccc(Cl)cc2)c2ccc(OCCN(CC)CC)cc2)cc1", "M14 melanoma", 22.6),
    ("COc1nc2ccccc2cc1-c1nc2c(cnn2-c2ccc(Br)cc2)c(=O)[nH]1", "M14 melanoma", -7.56),
    ("COc1cccc2nc3n(c12)C(c1c(F)cccc1F)SC3 (centres undefined)", "M14 melanoma", 111),
    ("O=C(CSc1nccc(Nc2ccc(S(=O)(=O)Nc3nccs3)cc2)n1)c1ccc(C(F)(F)F)cc1", "M14 melanoma", 100),
    ("CCOC(=O)Nc1ccc(-c2nc(-c3cccc(OCCN4CCOCC4)c3)c(-c3ccnc(Br)c3)[nH]2)cc1", "M14 melanoma", 57.4),
    ("CC(C)(C)NC(=O)C(OC(=O)c1cccc(Cl)c1)c1ccc(Cl)cc1 (centres undefined)", "M14 melanoma", 94.1),
    ("O=CN1N=C(c2ccc(Nc3ccnc4cc(Cl)ccc34)cc2)CC1c1ccccc1 (centres undefined)", "M14 melanoma", 25.6),
    ("O=c1c2cc(F)ccc2sc2c(NCCN3CCOCC3)nc3ccccc3c12", "M14 melanoma", 46.5),
    ("CCOC(=O)C1=C(N)Oc2c(sc3c(C)cccc23)C1c1ccc(OC)cc1 (centres undefined)", "M14 melanoma", 21.7),
    ("c1ccc2cc(C[n+]3ccn(CCCCCCn4cc[n+](Cc5ccc6ccccc6c5)c4)c3)ccc2c1", "M14 melanoma", 69.9),
    ("CCOC(=O)CCN(C(=O)Nc1ccccc1)C1CCCCC1", "M14 melanoma", 108),
    ("O=C(Nc1ccc(F)cc1F)c1cc(F)ccc1O", "M14 melanoma", 25.6),
    ("Oc1ccc(C#CCOc2ccccc2)cc1CNCCN(Cc1ccccn1)Cc1ccccn1", "M14 melanoma", 6.22),
    ("C/C(=C(/c1ccccc1)c1ccc(N2C(=O)c3cccc4c(N5CCN(C)CC5)ccc(c34)C2=O)cc1)c1ccccc1", "M14 melanoma", 85.6),
    ("CCCCCCNC(=O)Oc1ccc(/C(=C(\\C)c2ccc(OC)cc2)c2ccc(OCCN3CCCCC3)cc2)cc1", "M14 melanoma", -37),
]
